# Tested on: HCT-15 colon
# testDescription: NCI-60 one-dose screen, 48 h (100 = growth as untreated, 0 = no growth, -100 = all killed)
# appliedConditions: 10 µM unless noted
This is part of a sample that, as a whole, favours compounds with a hit. Of some 83,000 tested, about 20% had one in any assay.
Please note: growth exactly at 60% is no. Only values below 60% get yes.

{"compound": "COc1ccc(-c2cc(-c3ccc(Cl)cc3)c(C#N)c(=O)n2Cc2ccc(C(=O)O)cc2)cc1", "assignedClass": "no"}

API: query returns whether the compound falls strictly under 60% in growth. Query: Cn1ccnc1C(=O)/C=C/c1ccc(CNC(=O)c2c(F)c(F)c(F)c(F)c2F)cc1 yes

Also need CN(C)CCNC(=O)c1ccc(-c2nc3ccc4[nH]ncc4c3c3c2CCC3)cc1 , thanks. yes

What do you have for COc1ccc(/C=C(\C#N)C(=O)N2c3ccccc3Sc3ccc(SC)cc32)cc1F ? no

Can you handle O=C(Cn1cc(-c2ccccc2)nn1)Nc1nc(-c2ccc(Cl)cc2)cs1 next? no

And CCCCNNC(=O)c1ccc(-c2cccc(F)c2F)cc1 ? yes

Same thing, different compound: O=C(Nc1ccc2c(ccn2Cc2ccccn2)c1)c1cnccn1 no

Follow-up entry: O=C(CN1CCN(c2cc(=O)n(-c3ccccc3)c3ccccc23)CC1)Nc1nc(-c2ccc(Cl)cc2)cs1 yes

Data provenance: PubChem BioAssay (NCI)
